protocol: in vivo
particulars: mouse, po, 25 mg/kg
reported-property: Tmax at 24 h (h)
Value expressed in h; do not type the unit.

IN: Please report the recorded Tmax at 24 h for C[C@@]1(COc2ccc(C(F)(F)F)nc2)CCn2cc([N+](=O)[O-])nc2O1 .
OUT: 2

IN: Same lookup for CC1(COc2ccc(Cl)cn2)CCn2cc([N+](=O)[O-])nc2O1 (centres undefined) , please.
OUT: 1

IN: Request: O=[N+]([O-])c1cn2c(n1)OC(COc1ncc(Cl)cn1)CC2 (centres undefined)
OUT: 2

IN: Would you mind doing CC1(COc2ccc(C(F)(F)F)nc2)CCn2cc([N+](=O)[O-])nc2O1 (centres undefined) as well?
OUT: 1

IN: Field entry: CC1(COc2ccc(C(F)(F)F)cn2)CCn2cc([N+](=O)[O-])nc2O1 (centres undefined)
OUT: 0.5

IN: Consider next the compound O=[N+]([O-])c1cn2c(n1)OC(COc1ccc(C(F)(F)F)nc1)CC2 (centres undefined) in the same way.
OUT: 0.25

IN: Query C[C@]1(COc2ccc(C(F)(F)F)cn2)CCn2cc([N+](=O)[O-])nc2O1 next
OUT: 3.7

IN: Entry to check: C[C@]1(COc2ccc(C(F)(F)F)nc2)CCn2cc([N+](=O)[O-])nc2O1
OUT: 2

IN: Next record, please: C[C@@]1(COc2ccc(C(F)(F)F)cn2)CCn2cc([N+](=O)[O-])nc2O1
OUT: 2

* * *

Could you please report measured C0 at 24 h for the items listed next?
protocol: Initial plasma concentration in mouse at 1 mg/kg, iv measured upto 24 hrs LC-MS/MS analysis
A bare number is not enough; add the unit after it.

IN: Can you look up the measured C0 at 24 h of CC1(COc2ccc(C(F)(F)F)nc2)CCn2cc([N+](=O)[O-])nc2O1 (configuration not stated) for me?
OUT: 1600 ng/mL

IN: Also check C[C@]1(COc2ccc(C(F)(F)F)nc2)CCn2cc([N+](=O)[O-])nc2O1
OUT: 1100 ng/mL

IN: Could you do the same for CC1(COc2ccc(Cl)cn2)CCn2cc([N+](=O)[O-])nc2O1 (configuration not stated) , please?
OUT: 2600 ng/mL

IN: Now the same for CC1(COc2ccc(C(F)(F)F)cn2)CCn2cc([N+](=O)[O-])nc2O1 (configuration not stated)
OUT: 810 ng/mL

IN: Also need C[C@@]1(COc2ccc(C(F)(F)F)nc2)CCn2cc([N+](=O)[O-])nc2O1 , thanks.
OUT: 1900 ng/mL

IN: Also O=[N+]([O-])c1cn2c(n1)OC(COc1ccc(C(F)(F)F)nc1)CC2 (configuration not stated) ?
OUT: 2300 ng/mL

IN: What do we get for O=[N+]([O-])c1cn2c(n1)OC(COc1ncc(Cl)cn1)CC2 (configuration not stated) ?
OUT: 1900 ng/mL

* * *

Hi there, I'd appreciate the recorded Tmax at 24 h for every entry that follows.
protocol: in vivo
particulars: chinese hamster, po
Numeric answer only, unit h assumed.

IN: Fill blank: measured Tmax at 24 h of the compound C[C@@]1(COc2ccc(C(F)(F)F)cn2)CCn2cc([N+](=O)[O-])nc2O1 is ____.
OUT: 4.3

IN: Subsequent entry: C[C@]1(COc2ccc(C(F)(F)F)cn2)CCn2cc([N+](=O)[O-])nc2O1
OUT: 0.75
